assay: self-splicing fitness, log relative to wild type (ln ratio); higher = more splicing; Tetrahymena group I intron in knt gene, E. coli kanamycin selection, DiMSum; sequences stand for … in CUCUCU…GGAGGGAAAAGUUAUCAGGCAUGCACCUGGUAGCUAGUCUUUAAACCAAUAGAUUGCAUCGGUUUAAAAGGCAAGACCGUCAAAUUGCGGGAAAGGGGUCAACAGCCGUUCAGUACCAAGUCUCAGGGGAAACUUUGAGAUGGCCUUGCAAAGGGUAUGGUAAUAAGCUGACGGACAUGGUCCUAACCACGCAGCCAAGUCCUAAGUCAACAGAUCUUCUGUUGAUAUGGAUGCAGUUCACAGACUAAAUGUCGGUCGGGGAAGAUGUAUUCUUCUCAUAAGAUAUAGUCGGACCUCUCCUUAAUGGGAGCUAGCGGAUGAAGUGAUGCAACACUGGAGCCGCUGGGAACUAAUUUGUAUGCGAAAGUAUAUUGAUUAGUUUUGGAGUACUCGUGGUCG; conditions: 30 °C;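 also: selection with 25 µg/mL kanamycin versus none on LB agar overnight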
Listed below: self-splicing fitness (ln) values for each entry.

UCCAAGCAAUAUUACGCGUA -0.121
UUUAAGCAAUAUUACGUUCA -1.08
AGCGAGCAAUAUUACGGGCC -3.58

query: Please list self-splicing fitness (ln) recorded for the sequence "UUUAAGCAAUAUUACGAAAA"
result: -0.789

query: Please list self-splicing fitness (ln) recorded for the sequence "CUAGAGCAAUAUUACGCGAG"
result: -0.514

query: Please list self-splicing fitness (ln) recorded for the sequence "UACCAGCAAUAUUACGAUGU"
result: -1.9
